# credit: the nanobody polyreactivity screen of Harvey et al. (2022)

# Experiment Summary: yeast display, Sf9 membrane polyspecificity reagent, FACS + sequencing; frameworks hold sequencing errors

Sequence Entry	polyreactivity (PSR sort gate)
QVQLVESGGGLVQAGGSLRLSCAASGRIFYFNAMGWYRQAPGKERELVAAISGSGGDTYYADSVKGRFTISRDNAKNTVYLQMNSLKPEDTAVYYCAAEVYTWGQGTQVTVSS	low polyreactivity
QVQLVESGGGLVQAGGSLRLSCAASGYTVLYAIGWYRQAPRKDRELVAAISSRTGTTYYADSVKGRFTISRDNAKNSVYLQMNSLKREDTAVYYCNVEYFYYFRENGDYWGQGTQVTVSS	low polyreactivity

* * *

# Experiment Summary: yeast display, Sf9 membrane polyspecificity reagent, FACS + sequencing; frameworks hold sequencing errors

Sequence Entry	polyreactivity (PSR sort gate)
QVQLVESGGRLVQAGGSLRLSCAASGSTLYAYAMGWYRPAPGKERELVAAIRTGGSTYYADSVNGRFTISRDNAKNTVYLQMNSLKPEDTAVYYCAADHGYQYGYWGQGTQVTVSS	low polyreactivity
QVQLVESGGGLVQAGASLRLSCAASGFISYYYAMGWYRQAPGKERELVAAITKSGGSTYYADSVKGRFTISRDNAKNTVYLQMNSLKREDTAVYYCAAVRSTRNSTSRLYGYWGQGTQVTVSS	low polyreactivity
QFQLVESGGGLVQAGGSLRLSCAASGRTFQHNVMGWYIQAPGKERELVASITCRGGSTYYADSVKGRFTISRDNAKNTVYLQMNSLKPEDTAVYYCAARNGFRRVRFDYWGQGTQVTVSS	low polyreactivity

* * *

# Experiment Summary: yeast display, Sf9 membrane polyspecificity reagent, FACS + sequencing; frameworks hold sequencing errors
Measure: polyreactivity (PSR sort gate)

Some entries whose results are on file:
Sequence Entry	Measure	Recorded Value
QVQLVESGGGLFHAGGSLRLSCAASGRTFGIYAMGGSRQAPGKERELVAAITWSGDSTYYADSVKGRFTISRDNAKNTVYLQMNRLKPEDTAVYYCAADYVGVTSVRYDYWGQGTQVTVSS	polyreactivity (PSR sort gate)	low polyreactivity
QVQLVESGGGLVQAGGSLRLSCAASGSTFAYYAMGWYRPAPGKERELVAVISVRGGSTYYAESVKGRFTISRDNAKNTVYLQMNSLKPEDTAVYYCAADTFAGYYYWGQGTQVTVSS	polyreactivity (PSR sort gate)	high polyreactivity
QVQLVESGGGLVQAGGSLRLSCAASGRTYGYNAMGWYRQAPGKERELVAAISRSGDSTYYADSVKGRFTISRDNAKNTVYLQMNSLKPEDTAVYYCATRYVTTGYDYWGQGTQVTVSS	polyreactivity (PSR sort gate)	low polyreactivity
QVQLVESGGGLVQAGGSLRLSCAASGIIFYHYPMGWYRQAPGKERELVAAITGSGIRTYYADSVKGRFTISRDNAMNTVYLQMNSLKPEDTAVYYCGAQQRYWSTYGYWGQGTQVTVSS	polyreactivity (PSR sort gate)	high polyreactivity
QVQLVESGGGLVQAGGSLRLSCAASGFTFYYYTMGGSRQAPGKERELVAAITSRGGNTYYADSVKGRFTISRDYAKNTVYLQMNSLNPEDTAVYYCAACRFSSRGYGYWGQGTQVTVSS	polyreactivity (PSR sort gate)	high polyreactivity
QVQLVESGGGLVQAGGSLRLSCAASGFIFTQNGMGWYRQAPGKERELVAAISWSAGGTYYADSVKGRFTISRDNANNTVYLQMNSLKQEDTAVYYCNAELYFYWNVWVGYDYWGQGTQVTVSS	polyreactivity (PSR sort gate)	low polyreactivity
QVQLVESRGGLVQAGRSLRLSCAASGITFYSYAMGWYRQEPGKERELVAAITLTGGTTYYADSVKGRFTISRDNAKNTVYLQMNSLKPEDTAVYYCAAQYWWWSRFEYDSCGQGTQVTVSS	polyreactivity (PSR sort gate)	low polyreactivity
QVQLVESGGGLVQAGGSLRLSCAASGRNFYYNAMGWYRQAPGKERELVASITGSGGSTYYADSVKGRFTISRDNAKNTVYLQMNSLKPEDTAVYYCAKREYLYPYYYVAKYDYWGQGTQVTVSS	polyreactivity (PSR sort gate)	low polyreactivity

Entry under test: "QVQLVESGVGIVQAGGILRLSCAASGSIFFFYAMGWYRQAPAKERELVAAITSSDGDTYYADSVKGRFTISRDNAKNTVYLEMNSLKPEDTAVYYCAVRSSWYEGDYWGQGTQVTVSS" . Its polyreactivity (PSR sort gate) was low polyreactivity

Per the record, "QVQLVESGGGLVQAGGSLRLSCAASGITFTRYAMGWYRQAPGKERELVAAISSGGRTNYADSVKGRFTISRDNAKNTVYLQMNSLKPEDTGVYYCNAAGHRWDPRYHYWGQGTQVTVSS" has polyreactivity (PSR sort gate) of high polyreactivity
